- protocol_text: yeast display, Sf9 membrane polyspecificity reagent, FACS + sequencing; frameworks hold sequencing errors
parameter_measured: polyreactivity (PSR sort gate)

INSERT INTO measurements (sequence_input, obs_value) VALUES
  ('QVQLVESGGGLVQAGGSLRLSCAASGFIFATNTMGWYRQAPGKERELVAASSTYYADSVKGRFTISRDNAKNTVYLQMNSLKPEDTAVYYCNADRDSYIGFVVWAGEYWGQGSQVTVSS', 'low polyreactivity'),
  ('QVQLVESGGGLVQAGGSLRLSCAASGFTFYRYAMGWYRQAPGKERELVAVITGRGGTTYYADSVKGRFTISRDNAKNTVYLQMNSMKPEDTAVYYCAVQTHRSLDPYDYWGQGTQVTVSS', 'high polyreactivity'),
  ('QVQLVESGGGLVQAGGSLRLSCAASGSIFESYAMGWYRQAPGKERELVAAITKRGGSTYYADSVKGRFTISRDNAKYTVYLQMNSLKPEDTAVYYCNARWPGIGPIYDYWGQGSQVTVSS', 'low polyreactivity'),
  ('QVQLVESGVGLVQAGGSLRLSCAASGGIFVPYAMGWYRQAPGKERELVAGITSGGSTNYADSVKGRFTISRDNAKNTVYLQMNSLKPEDTAVYYCAARRRPGGRYKSRVWYDYWGQGTQVTVSS', 'high polyreactivity'),
  ('QVQLVESGGGLVQAGGSLRLSCAASGFIIDGYAMGWYRQAPVKERELVAVISQRGSNTYYADSVKGRFTISRDNAKNTVYLQMNSLKPEDTAVYYCAARYKQGDSTGGRMNYWGQGTQVTVSS', 'high polyreactivity');

----------
- protocol_text: yeast display, Sf9 membrane polyspecificity reagent, FACS + sequencing; frameworks hold sequencing errors
parameter_measured: polyreactivity (PSR sort gate)

INSERT INTO measurements (sequence_input, parameter_measured, obs_value) VALUES
  ('QVQLVESGGGLVQAGGSLRLSCAASGIIFSSYVMGWYRKATGKERELVAAISSRGVSTYYADSVKGRFTISRDNAKNTVYLQMNSLKPEDTAVYYCNAKDKQGRKQFKLCAGYYLGQGTQVTVSS', 'polyreactivity (PSR sort gate)', 'high polyreactivity'),
  ('QVQLEESGVGLVQAGGSLRLSCAASGSIFYYNAMGSYRQPHGKERDLVAAISWGDGITYYADSVKGRFTISRDNGKNSVYLPMNSLKPEDTAVYYWAVDYYYLPYEYWGKGTQVTVSS', 'polyreactivity (PSR sort gate)', 'high polyreactivity'),
  ('QVQLVESGGGLVQAGGSLRLSCAASGRIFYTYAMGWYRTAPGKERELVAAISSRTGSTYYADSVKWRFTISRDNAKNTVYLQMNSLKPEDTAVYYCNAYRLRYGYDYWGQGTQVTVSS', 'polyreactivity (PSR sort gate)', 'high polyreactivity'),
  ('QVQLVESGGGLVQAGGSLRLSCAASGFTFTDYAMGWYRQAPGKERELVAAITKGGGRTYYADSVKGRFTISRDNAKNTVYLQMNSLKPEDTAVYYCNARYQVPYGYWGQGTQVTVSS', 'polyreactivity (PSR sort gate)', 'low polyreactivity'),
  ('QVQLVESGGGLVQAGGSLRLSCAASGFIIGSYAMGWYRQAPGTERELVAAITRSGGNTYYADSVKGRFTISRDNAKNTVYLQMNSLKPEDTAVYYCAAYSGYWYDYWGQGTQVTVSS', 'polyreactivity (PSR sort gate)', 'high polyreactivity'),
  ('QVQLVESGGGLVQAGGSLRLSCAASGSIFYWYAMGWYRPAPGKERELVAAISYSGGSTYADSVKGRFTISRDNAKNTVYLQMNSLKPEDTAVYYCAVGYYRFGRFLGYYWGQGTQVTVSS', 'polyreactivity (PSR sort gate)', 'high polyreactivity'),
  ('QVQLAESGGGLVQAGGSLRLSCAASGSIFRLNAMGWYRQAPGKERELVAAINSGTNTYYADSVKGRFTISRDNAMNTVYLQMNSLKPEDTAVYYCAADWNDWHYDYWGQGTQVTVSS', 'polyreactivity (PSR sort gate)', 'low polyreactivity'),
  ('QVQLVESGGGLDQARGSLRLSCAASGRTFVLNAMGWYRQAPGKERELVAAITLGGGSTYADSVKGRFTISRANAKNTVYLQMNSLKPEDTAVYYCAADFHYPYFEYWGQGTQVTVSS', 'polyreactivity (PSR sort gate)', 'low polyreactivity'),
  ('QVQLVESGGGLVQAGGRLRLSCAASGSIFGGNDMGWYRQPPGKERELVAAITSSGGSTYYADSVKGRFTISRDNAKNTVYLQMYSLKPEDTAVYYCNADYYGPYRDYGYWGQGTQVTVSS', 'polyreactivity (PSR sort gate)', 'low polyreactivity'),
  ('QVQLVESGGGLVQAGGSLRLSCAASGSIFVWNARGWYRQAPVKERELVAAISYTDGSTYYADFVKGRFTISRDNAKNTVYLQMNSLKPEDTAVYFCAAAITRSYTGSEYDYWGQGTEVTVSS', 'polyreactivity (PSR sort gate)', 'low polyreactivity'),
  ('QVQVVESGGGLLQAGVSLRLSCAASGRTFSKYDMGLYRQPPGKERELVAAITRTGSSTYYADSVKGRFTISRDNAKNTVYLQMNSLKPEDTAVYYCAADRYLRYSGSSSDYGYWVQGTQVTVSS', 'polyreactivity (PSR sort gate)', 'low polyreactivity'),
  ('QVQLVESGGGLVQAGGSLRLSCAASGSIFGYYAMGCYRQAPGKERELVAAITNGGSTSYADSVKGRFTISRDNAKNTVDLQMNSLKPEETSVYYCNARFKRLFGRADDYWGQGTQVTVSS', 'polyreactivity (PSR sort gate)', 'low polyreactivity'),
  ('QVQLVESGGGLVQAGGSLRLSCAASGYTFWLYAMGWYRQAPGKERELVATISRRAGTTYYADSVKGRFTISRDNAKNTVYLQMNSLKPEDTAVYYCNTDGYPRLYIYDYWGQGTQVTVSS', 'polyreactivity (PSR sort gate)', 'low polyreactivity');
